# Target Entity: Progesterone Receptor (PR) (Homo sapiens, UniProt P06401)
# Construct: endogenous in cells
# Test Description: In vitro functional assay for progesterone receptor (PR) antagonists: inhibition of progesterone-induced alkaline phosphatase expression in T47D cells
# Assay Conditions: antagonist format, 5 nM progesterone, Ki calculated from IC50 with the Cheng-Prusoff equation
# Ki per entry

>  <Molecule>
CCc1c(-c2ccc(C#N)cc2)nn(C(C)CC)c1C(=O)NCC(C)(C)O (single isomer, unassigned) [Example 106 Ent 1]

>  <Unit Abbreviation>
nM

>  <Ki>
14.8

$$$$
>  <Molecule>
Cc1cc(-c2nn(C(C)C)c(C(=O)NC3CC3)c2C)ccc1C#N

>  <Unit Abbreviation>
nM

>  <Ki>
4.4

$$$$
>  <Molecule>
CNC(=O)CNC(=O)c1c(C2CC2)c(-c2ccc(C#N)c(C)c2)nn1C(C)C

>  <Unit Abbreviation>
nM

>  <Ki>
8.66

$$$$
>  <Molecule>
Cc1c(-c2ccc(C#N)cc2)nn(C2CCC2)c1C(=O)NC1CC1

>  <Unit Abbreviation>
nM

>  <Ki>
8.25

$$$$

---

# Target Entity: Progesterone Receptor (PR) (Homo sapiens, UniProt P06401)
# Construct: endogenous in cells; host or cells: T47D human breast mammary carcinoma cells
# Test Description: In vitro functional assay for progesterone receptor (PR) antagonists: inhibition of progesterone-induced alkaline phosphatase expression in T47D cells
# Assay type: cell-based
# Assay Conditions: antagonist format, 5 nM progesterone, Ki calculated from IC50 with the Cheng-Prusoff equation
# Text: 1.0 In vitro Functional Assay for Progesterone Receptor (PR) Antagonists, Agonists and Modulators The assay for PR antagonism takes advantage of the extensively reported modulation of alkaline phosphatase (AP) expression in human breast T47D mammary carcinoma cells {Beck et al., D. P. (1993). The progesterone antagonist RU486 acquires agonist activity upon stimulation of cAMP signalling pathways. Proc Natl Acad Sci USA 90, 4441-4445; Fensome et al. (2002). […]
Ki under 0.008 µM gets y, anything at or over 0.008 µM gets n.

>  <Molecule>
Cc1cc(-c2nn(C(C)C)c(C(=O)NC(C)C)c2C#N)ccc1C#N

>  <Assigned Label>
y

$$$$
>  <Molecule>
CCNC(=O)c1c(CC)c(-c2ccc(C#N)cc2)nn1C(C)CC (racemic)

>  <Assigned Label>
n

$$$$
>  <Molecule>
CC(=O)N1CC(NC(=O)c2c(C3CC3)c(-c3ccc(C#N)cc3)nn2C(C)C)C1

>  <Assigned Label>
n

$$$$
>  <Molecule>
CC(C)n1nc(-c2ccc(C#N)cc2)c(C2CC2)c1C(=O)NC1CC1

>  <Assigned Label>
y

$$$$
>  <Molecule>
CNC(=O)c1c(C)c(-c2ccc(C#N)cc2)nn1C1CCC1

>  <Assigned Label>
y

$$$$
>  <Molecule>
CNC(=O)c1c(C)c(-c2ccc(C#N)cc2)nn1C1CC1

>  <Assigned Label>
n

$$$$
>  <Molecule>
Cc1c(-c2ccc(C#N)cc2)nn(C2CCOC2)c1C(=O)NC(C)C (racemic) [Example 77]

>  <Assigned Label>
n

$$$$
>  <Molecule>
CC(C)n1nc(-c2ccc(C#N)cc2)c(C2CC2)c1C(=O)NC1CCOCC1

>  <Assigned Label>
n

$$$$
>  <Molecule>
CCc1c(-c2ccc(C#N)cc2)nn(C(C)C)c1C(=O)NC1CC1

>  <Assigned Label>
n

$$$$
>  <Molecule>
CC(C)n1nc(-c2ccc(C#N)cc2)c(C2CC2)c1C(=O)NC[C@@H](C)O

>  <Assigned Label>
n

$$$$
>  <Molecule>
CC(C)NC(=O)c1c(Cc2ccccc2)c(-c2ccc(C#N)cc2)nn1C(C)C

>  <Assigned Label>
n

$$$$
>  <Molecule>
CC(C)NC(=O)c1c(C#N)c(-c2ccc(C#N)cc2)nn1C(C)C

>  <Assigned Label>
y

$$$$
>  <Molecule>
Cc1c(-c2ccc(C#N)cc2)nn(C2CC2)c1C(=O)NCC1CC1

>  <Assigned Label>
n

$$$$
>  <Molecule>
CC(C)n1nc(-c2ccc(C#N)cc2)c(Cl)c1C(=O)NC[C@H](C)O

>  <Assigned Label>
n

$$$$
>  <Molecule>
COCCCNC(=O)c1c(C2CC2)c(-c2ccc(C#N)cc2)nn1C(C)C

>  <Assigned Label>
n

$$$$
>  <Molecule>
Cc1c(-c2ccc(C#N)cc2)nn(C2CCC2)c1C(=O)NCC1CC1

>  <Assigned Label>
y

$$$$
>  <Molecule>
CNC(=O)c1c(C#N)c(-c2ccc(C#N)cc2)nn1C(C)C

>  <Assigned Label>
n

$$$$
>  <Molecule>
CC(C)n1nc(-c2ccc(C#N)cc2)c(C2CC2)c1C(=O)NCCC1CC1

>  <Assigned Label>
n

$$$$

---

# Target Entity: Progesterone Receptor (PR) (Homo sapiens, UniProt P06401)
# Construct: endogenous in cells
# Test Description: In vitro functional assay for progesterone receptor (PR) antagonists: inhibition of progesterone-induced alkaline phosphatase expression in T47D cells
# Assay Conditions: antagonist format, 5 nM progesterone, Ki calculated from IC50 with the Cheng-Prusoff equation
pKi: −log10 of the molar value.
Mark MET for reported pKi of 7 or greater; mark NOT MET for anything smaller.

>  <Molecule>
CC(C)n1nc(-c2ccc(C#N)cc2)c(C2CC2)c1C(=O)NC1CN(S(C)(=O)=O)C1 [Example 18]

>  <Assigned Label>
MET

$$$$
>  <Molecule>
CCNC(=O)c1c(CC)c(-c2ccc(C#N)cc2)nn1C(C)C [Example 116]

>  <Assigned Label>
MET

$$$$
>  <Molecule>
Cc1c(-c2ccc(C#N)cc2)nn(C2CCOC2)c1C(=O)NCC(C)(C)O (single isomer, unassigned) [Example 80 Ent 1]

>  <Assigned Label>
MET

$$$$
>  <Molecule>
CCC(=O)N1CC[C@H](NC(=O)c2c(C3CC3)c(-c3ccc(C#N)cc3)nn2C(C)C)C1 [Example 15]

>  <Assigned Label>
NOT MET

$$$$
>  <Molecule>
CCc1c(-c2ccc(C#N)cc2)nn(C(C)C)c1C(=O)NC[C@H](C)O [Example 114]

>  <Assigned Label>
MET

$$$$
>  <Molecule>
CCc1c(-c2ccc(C#N)cc2)nn(C(C)CC)c1C(=O)NCC(=O)NC (racemic) [Example 109]

>  <Assigned Label>
NOT MET

$$$$
>  <Molecule>
CCc1c(-c2ccc(C#N)cc2)nn(C(C)C)c1C(=O)NC(C)C [Example 117]

>  <Assigned Label>
MET

$$$$
>  <Molecule>
CCc1c(-c2ccc(C#N)cc2)nn(C(C)CC)c1C(=O)NCC(=O)NC (single isomer, unassigned) [Example 109 Ent 2]

>  <Assigned Label>
NOT MET

$$$$
>  <Molecule>
CCc1c(-c2ccc(C#N)cc2)nn(C(C)CC)c1C(=O)NCC(C)(C)O (racemic) [Example 106]

>  <Assigned Label>
MET

$$$$
>  <Molecule>
CC(C)n1nc(-c2ccc(C#N)cc2)c(C2CC2)c1C(=O)NC(C)(C)C [Example 60]

>  <Assigned Label>
MET

$$$$
>  <Molecule>
CCNC(=O)c1c(C)c(-c2ccc(C#N)cc2)nn1C1CCOC1 (single isomer, unassigned) [Example 76 Ent 1]

>  <Assigned Label>
MET

$$$$
>  <Molecule>
CC(C)n1nc(-c2ccc(C#N)cc2)c(C2CC2)c1C(=O)NC1CCS(=O)(=O)C1 (stereo not shown) [Example 125]

>  <Assigned Label>
MET

$$$$
>  <Molecule>
Cc1cc(-c2nn(C(C)C)c(C(=O)NCC(C)(C)O)c2C#N)ccc1C#N [Example 126]

>  <Assigned Label>
MET

$$$$

---

Measured pKi of individual entries
# Target Entity: Progesterone Receptor (PR) (Homo sapiens)
# Construct: endogenous in cells
# Test Description: In vitro functional assay for progesterone receptor (PR) antagonists: inhibition of progesterone-induced alkaline phosphatase expression in T47D cells
# Assay Conditions: antagonist format, 5 nM progesterone, Ki calculated from IC50 with the Cheng-Prusoff equation
pKi: −log10 of the molar value.
Recorded Endpoint: pKi

>  <Compound>
CC(C)n1nc(-c2ccc(C#N)cc2)c(C#N)c1C(=O)NC[C@@H](C)O

>  <Recorded Endpoint>
pKi

>  <Measured Number>
7.71

$$$$
>  <Compound>
CC[C@@H](C)NC(=O)c1c(C2CC2)c(-c2ccc(C#N)cc2)nn1C(C)C

>  <Recorded Endpoint>
pKi

>  <Measured Number>
7.95

$$$$
>  <Compound>
CC(C)C(=O)N1CC[C@@H](NC(=O)c2c(C3CC3)c(-c3ccc(C#N)cc3)nn2C(C)C)C1

>  <Recorded Endpoint>
pKi

>  <Measured Number>
7.73

$$$$
>  <Compound>
COCCNC(=O)c1c(C2CC2)c(-c2ccc(C#N)cc2)nn1C(C)C

>  <Recorded Endpoint>
pKi

>  <Measured Number>
8.11

$$$$
